TESTED TARGET: human CD33 F216A (human, UniProt P20138 18-364)
Sequence (P20138 18-364 F216A limits assumed): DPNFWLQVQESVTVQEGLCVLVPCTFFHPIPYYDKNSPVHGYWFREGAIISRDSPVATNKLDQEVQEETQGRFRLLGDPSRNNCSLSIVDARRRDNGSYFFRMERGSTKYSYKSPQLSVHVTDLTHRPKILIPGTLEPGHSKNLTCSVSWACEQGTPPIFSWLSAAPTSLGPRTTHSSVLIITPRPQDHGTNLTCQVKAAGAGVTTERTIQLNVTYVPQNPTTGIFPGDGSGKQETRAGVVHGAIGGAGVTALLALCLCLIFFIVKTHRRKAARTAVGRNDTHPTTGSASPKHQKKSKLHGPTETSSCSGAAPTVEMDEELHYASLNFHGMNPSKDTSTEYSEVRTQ
ASSAY: alanine scan, flow cytometry, HEK293-T;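 note: antibody binding to each alanine-substituted CD33 mutant expressed transiently in HEK293-T, read as fluorescence minus background, mean of duplicates, relative to wild-type CD33 set as 100%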
REPORTED ENDPOINT: Mean % WT Binding (%)
Numbers only, in %.

{"BINDER": "Refmab #4 (antibody, V domains shown, In the alanine scan antibodies were used as IgG or Fab) VH: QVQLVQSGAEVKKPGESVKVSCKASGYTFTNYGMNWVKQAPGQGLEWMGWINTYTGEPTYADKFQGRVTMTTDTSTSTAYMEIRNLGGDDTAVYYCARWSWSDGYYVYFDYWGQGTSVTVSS VL: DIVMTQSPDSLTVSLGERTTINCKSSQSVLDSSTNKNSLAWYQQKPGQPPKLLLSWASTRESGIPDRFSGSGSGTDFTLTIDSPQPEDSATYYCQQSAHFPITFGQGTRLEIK", "UNIT ABBREVIATION": "%", "Mean % WT Binding": 71.6}
{"BINDER": "Refmab #2 (antibody, V domains shown, In the alanine scan antibodies were used as IgG or Fab) VH: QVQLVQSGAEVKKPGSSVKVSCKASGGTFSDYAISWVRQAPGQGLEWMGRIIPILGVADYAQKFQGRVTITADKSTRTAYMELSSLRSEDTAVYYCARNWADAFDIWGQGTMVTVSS VL: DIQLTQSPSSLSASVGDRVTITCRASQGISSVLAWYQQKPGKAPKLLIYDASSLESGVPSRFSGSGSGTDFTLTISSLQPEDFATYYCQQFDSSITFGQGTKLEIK", "UNIT ABBREVIATION": "%", "Mean % WT Binding": 101}
{"BINDER": "Refmab #3 (antibody, V domains shown, In the alanine scan antibodies were used as IgG or Fab) VH: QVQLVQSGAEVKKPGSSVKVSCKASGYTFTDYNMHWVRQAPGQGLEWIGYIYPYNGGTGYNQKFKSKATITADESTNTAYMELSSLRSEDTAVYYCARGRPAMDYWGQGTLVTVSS VL: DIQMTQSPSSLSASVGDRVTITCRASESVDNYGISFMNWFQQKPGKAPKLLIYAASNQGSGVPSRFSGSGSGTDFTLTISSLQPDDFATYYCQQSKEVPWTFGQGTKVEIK", "UNIT ABBREVIATION": "%", "Mean % WT Binding": 152}

Now consider the entry below.
Q: If you can, please state the reported Mean % WT Binding value of Refmab #1 (antibody, V domains shown, In the alanine scan antibodies were used as IgG or Fab; also called hP67.6) VH: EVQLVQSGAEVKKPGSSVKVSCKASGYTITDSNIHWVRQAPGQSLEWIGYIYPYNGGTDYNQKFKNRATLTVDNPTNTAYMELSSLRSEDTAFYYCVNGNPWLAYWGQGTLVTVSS VL: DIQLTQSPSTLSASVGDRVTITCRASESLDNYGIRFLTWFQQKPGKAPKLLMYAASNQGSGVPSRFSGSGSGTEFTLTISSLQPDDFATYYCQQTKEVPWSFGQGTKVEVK .
Result: 87.3
